# Tested On: CDK2 (UniProt P24941)
# Assay Info: Enzyme Assay
# Condition: concentration not given here
Reported inhibition values are given for each entry in this list.
Value Type: inhibition (%)

> print(dat)
                                    compound  unit.descriptor  assay.result
 1  NC(=O)c1cc(-c2ccccc2)sc1NC(=O)Cc1ccccc1O                %           100
 2          NC(=O)c1c(NC(=O)C2CC2)sc2c1CCCC2                %           100
 3  NC(=O)c1cc(Cc2ccccc2)sc1NC(=O)c1ccc2[nH]cnc2c1                %           100
 4       NC(=O)c1c(NC(=O)c2cnccn2)sc2c1CCCC2                %           100
 5  Cc1sc(NC(=O)c2coc3ccccc3c2=O)c(C(N)=O)c1C                %           100
 6  Cc1sc(NC(=O)c2ccc(-n3cccc3)cc2)c(C(N)=O)c1C                %           100
 7        NC(=O)c1c(NC(=O)c2cccs2)sc2c1CCCC2                %           100
 8  CC(c1ccccc1)c1cc(C(N)=O)c(NC(=O)c2cnnc3ccccc23)s1 (stereo not given)                %           100
 9  CC(c1ccccc1)c1cc(C(N)=O)c(NC(=O)CC2CCc3ccccc32)s1 (stereo not given)                %           100
10   COc1cccc(OC)c1C(=O)Nc1sc(C)c(C)c1C(N)=O                %           100
11  NC(=O)c1cc(Cc2ccccc2)sc1NC(=O)/C(F)=C/c1ccccc1                %           100
12  CN1CCc2c(sc(NC(=O)C(Cc3c[nH]cn3)NC(=O)c3ccccc3)c2C(N)=O)C1 (stereo not given)                %           100
13  Cc1sc(NC(=O)/C=C\c2ccc3c(c2)OCO3)c(C(N)=O)c1C                %           100
14              CC(=O)Nc1sc2c(c1C(N)=O)CCCC2                %           100
15  CC(=O)NC(=O)C(C)Nc1sc(C(C)C)cc1C(N)=O (stereo not given)                %           100
16       Cc1nocc1C(=O)Nc1sc2c(c1C(N)=O)CCCC2                %           100
17  COc1cccc(/C=C\C(=O)Nc2scc(C)c2C(N)=O)c1OC                %           100
18  CN1CCc2c(sc(NC(=O)Cc3ccc(S(C)(=O)=O)cc3)c2C(N)=O)C1                %           100
19  Cc1nc2cc(C(=O)Nc3sc(C)c(C)c3C(N)=O)ccc2[nH]1                %           100
20  COc1ccc2c(c1)C(CC(=O)Nc1sc3c(c1C(N)=O)CCN(C)C3)C(=O)C2 (stereo not given)                %           100
21     CC(C)c1cc(C(N)=O)c(NC(=O)c2ccccc2F)s1                %           100
22  CC(=O)NC(=O)C(Nc1sc(-c2ccccc2)cc1C(N)=O)C(C)C (stereo not given)                %           100
23      Cc1ccccc1C(=O)Nc1sc2c(c1C(N)=O)CCCC2                %           100
24  COc1ccc2[nH]c(C)c(CC(=O)Nc3sc4c(c3C(N)=O)CCN(C)C4)c2c1                %           100
25      NC(=O)c1c(NC(=O)c2ccccc2O)sc2c1CCCC2                %           100
26       Cc1ccoc1C(=O)Nc1sc2c(c1C(N)=O)CCCC2                %           100
27  CN1CCc2c(sc(NC(=O)CCCc3c[nH]c4ccccc34)c2C(N)=O)C1                %           100
28  NC(=O)c1cc(-c2ccccc2)sc1NC(=O)c1ccccc1Cl                %           100
29  CC(c1ccccc1)c1cc(C(N)=O)c(NC(=O)CCC(=O)c2ccccc2)s1 (stereo not given)                %           100
30     Cc1cc(C(=O)Nc2sc3c(c2C(N)=O)CCCC3)no1                %           100
31     CC(C)c1cc(C(N)=O)c(NC(=O)C2CCCCCC2)s1                %           100
32   COc1ccc(CC(=O)Nc2scc(C)c2C(N)=O)c(OC)c1                %           100
33    Cc1csc(NC(=O)CNC(=O)c2ccccc2O)c1C(N)=O                %           100
34     NC(=O)c1c(NC(=O)c2cn[nH]c2)sc2c1CCCC2                %           100
35  COc1cc(OC)c(C(=O)Nc2sc3c(c2C(N)=O)CCN(C)C3)c(OC)c1                %           100
36  NC(=O)CN(C(=O)c1ccco1)c1sc(Cc2ccccc2)cc1C(N)=O                %           100
37        CCN(CC)CCC(=O)Nc1sc(C)c(C)c1C(N)=O                %           100
38  NC(=O)c1cc(-c2ccccc2)sc1NC(=O)C1(c2ccccc2)CC1                %           100
39  CC(c1ccccc1)c1cc(C(N)=O)c(NC(=O)c2cccc(Cl)c2O)s1 (stereo not given)                %           100
40     Cc1csc(NC(=O)CCn2ccc3ccccc32)c1C(N)=O                %           100
41  COc1ccc(/C=C\C(=O)Nc2scc(C)c2C(N)=O)c(OC)c1                %           100
42  CC(C)c1cc(C(N)=O)c(NC(=O)C2CC3C=CC2C3)s1 (stereo not given)                %           100
43  NC(=O)c1c(N2C(=O)CCC2C(N)=O)sc2c1CCCC2 (stereo not given)                %           100
44  Cc1csc(NC(=O)C2=COc3ccc(Cl)cc3C2)c1C(N)=O                %           100
45   NC(=O)c1cc(-c2ccccc2)sc1NC(=O)CCc1cccs1                %           100
